src = the supplement of paper PMC9112550

Exercise: for every item that follows, state its recorded shrunken log2 fold change.
Tested on: Escherichia coli TOP10;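 note: peptides expressed intracellularly from a pBAD plasmid library in pooled LB shake-flask culture, induced with 0.3% L-arabinose, DNA abundance read by NGS, three biological replicates, DESeq2 with apeglm shrinkage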
protocol description: shrunken log2 fold change of peptide-encoding DNA abundance (4.5 h post-induction vs induction); higher = less antimicrobial activity (less host growth inhibition)
condition context: time post-induction: 4.5 h; library: site-saturation at positions 5, 18, 19, 20
Answers are plain numbers.

Query: Can you share its shrunken log2 fold change? I mean this sequence: RRIRCRPPRLPRPRPRPAPKPRP
Reply: 1.02

Query: Can you share its shrunken log2 fold change? I mean this sequence: RRIRNRPPRLPRPRPRPAHSPRP
Reply: 0.111

Query: Can you share its shrunken log2 fold change? I mean this sequence: RRIRKRPPRLPRPRPRPSTWPRP
Reply: -0.18

Query: Can you share its shrunken log2 fold change? I mean this sequence: RRIRIRPPRLPRPRPRPQKVPRP
Reply: -0.102

Query: Can you share its shrunken log2 fold change? I mean this sequence: RRIRSRPPRLPRPRPRPDSKPRP
Reply: 1.02

Dear colleague, could you please provide shrunken log2 fold change for the sequences listed below?
1. RRIRDRPPRLPRPRPRPESKPRP
2. RRIRRRPPRLPRPRPRPQQNPRP
3. RRIRIRPPRLPRPRPRPHRPPRP
4. RRIRFRPPRLPRPRPRPHYGPRP
5. RRIRIRPPRLPRPRPRPTLPPRP

Reply:
1. 0.0201
2. 0.0713
3. -0.166
4. 0.0398
5. 0.0197
